Values were extracted from paper PMC8119466.

study_system: recombinant PRL-2 (Homo sapiens)
Construct: 6xHis (N, cleaved yes); made in house; host or cells: E. coli One Shot BL21 Star
measurement_notes: In vitro phosphatase assay (DiFMUP hydrolysis), PRL-2
Type: biochemical
run_parameters: FDA-approved drug screen; compared to DMSO
Reported % Phosphatase Activity (compared to DMSO) PRL-2 values for the following compounds.
# number only, unit % dropped from output

A selection of reference data follows.
compound: CCCCCCCCCCCCCCCC(=O)O[C@@H]1[C@@H](O)[C@@H](O)[C@@H]([C@H](NC(=O)[C@@H]2C[C@@H](CCC)CN2C)[C@H](C)Cl)O[C@@H]1SC.Cl [Clindamycin palmitate HCl]
study_system: recombinant PRL-2 (Homo sapiens)
measured_value: 133
//
compound: COc1ccccc1OCCNCC(O)COc1cccc2[nH]c3ccccc3c12 (stereo not shown)
study_system: recombinant PRL-2 (Homo sapiens)
measured_value: 128
//
compound: CCOc1cc2ncc(C#N)c(Nc3ccc(F)c(Cl)c3)c2cc1NC(=O)/C=C/CN(C)C [Pelitinib (EKB-569)]
study_system: recombinant PRL-2 (Homo sapiens)
measured_value: 120
//
compound: COc1c(N2CCNC(C)C2)c(F)cc2c(=O)c(C(=O)O)cn(C3CC3)c12 (stereo not shown)
study_system: recombinant PRL-2 (Homo sapiens)
measured_value: 187

Ask | Fill in the blank: the reported % Phosphatase Activity (compared to DMSO) PRL-2 of `NC(=O)Cc1cccc(C(=O)c2ccccc2)c1N` is ____.
Reply | 93

Ask | # iterate: `O=C(O)c1cc(-c2ccc(F)cc2F)ccc1O`
Reply | 87

Ask | # iterate: `OCCN(CCO)c1nc(N2CCCCC2)c2nc(N(CCO)CCO)nc(N3CCCCC3)c2n1`
Reply | 258

Ask | # iterate: NC(=O)c1cccnc1 [Nicotinamide (Vitamin B3)]
Reply | 95

Ask | # iterate: `CCC(=O)NCC[C@@H]1CCc2ccc3c(c21)CCO3`
Reply | 96

---

study_system: recombinant PRL-3 (Homo sapiens)
Construct: 6xHis (N, cleaved yes); made in house; host or cells: E. coli One Shot BL21 Star
measurement_notes: In vitro phosphatase assay (DiFMUP hydrolysis), PRL-3
Assay type: biochemical
run_parameters: FDA-approved drug screen; activity compared to DMSO
Reported % Phosphatase Activity (compared to DMSO) PRL-3 values for the following compounds.
# number only, unit % dropped from output

A selection of reference data follows.
compound: Cc1ccsc1C(=CCCN1CCC[C@@H](C(=O)O)C1)c1sccc1C [Tiagabine]
study_system: recombinant PRL-3 (Homo sapiens)
measured_value: 78
--
compound: O=C(CCCCCCC(=O)Nc1ccccc1)NO [Vorinostat (SAHA, MK0683)]
study_system: recombinant PRL-3 (Homo sapiens)
measured_value: 92
--
compound: CCC(COC(=O)c1cc(OC)c(OC)c(OC)c1)(c1ccccc1)N(C)C (centres unmarked)
study_system: recombinant PRL-3 (Homo sapiens)
measured_value: 84
--
compound: CC(S)C(=O)NCC(=O)O (centres unmarked)
study_system: recombinant PRL-3 (Homo sapiens)
measured_value: 98

Ask | Fill in the blank: the reported % Phosphatase Activity (compared to DMSO) PRL-3 of `Cc1cn([C@H]2C[C@H](N=[N+]=[N-])[C@@H](CO)O2)c(=O)[nH]c1=O` is ____.
Reply | 85

---

study_system: recombinant PRL-3 (Homo sapiens, UniProt O75365)
Construct: 6xHis (N, cleaved yes); made in house; host or cells: E. coli One Shot BL21 Star
Sequence (O75365 whole entry): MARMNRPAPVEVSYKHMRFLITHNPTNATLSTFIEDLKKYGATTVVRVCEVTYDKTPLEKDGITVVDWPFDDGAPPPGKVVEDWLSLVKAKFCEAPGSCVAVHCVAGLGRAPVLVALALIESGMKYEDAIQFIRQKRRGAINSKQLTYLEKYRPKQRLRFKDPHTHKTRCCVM
measurement_notes: In vitro phosphatase assay (DiFMUP hydrolysis), PRL-3
Type: biochemical
Counter-ions that a name gives are not always drawn.
observation_type: % Phosphatase Activity (compared to DMSO) PRL-3 (%)
# number only, unit % dropped from output

A selection of reference data follows.
compound: NC(=O)C(c1ccccc1)(c1ccccc1)[C@@H]1CCN(CCc2ccc3c(c2)CCO3)C1
unit_string: %
measured_value: 87
--
compound: C#CCN[C@@H]1CCc2ccccc21 [Rasagiline Mesylate]
unit_string: %
measured_value: 99
--
compound: CCCN[C@H]1CCc2nc(N)sc2C1 [Pramipexole]
unit_string: %
measured_value: 72

Ask | Fill in the blank: the reported % Phosphatase Activity (compared to DMSO) PRL-3 of `FC(F)(F)c1ccc(/C=C/c2nc(COc3ccc(CCCCn4ccnn4)cc3)co2)cc1` is ____.
Reply | 101

Ask | # iterate: CC1(C)S[C@@H]2[C@H](NC(=O)[C@H](N)c3ccc(O)cc3)C(=O)N2[C@H]1C(=O)[O-].[Na+] [Amoxicillin Sodium]
Reply | 80

---

study_system: recombinant PRL-3 (Homo sapiens, UniProt O75365)
Construct: 6xHis (N, cleaved yes); made in house; host or cells: E. coli One Shot BL21 Star
measurement_notes: In vitro phosphatase assay (DiFMUP hydrolysis), PRL-3
Assay type: biochemical
run_parameters: FDA-approved drug screen; compared to DMSO
Where a name gives a salt, the structure may show the parent alone.
Please use Met for % Phosphatase Activity (compared to DMSO) PRL-3 under 90% and Not met for everything else, ties included.

Example results:
molecule: Cl.N=C(N)NCCC[C@H](N)C(=O)O [L-Arginine HCl (L-Arg)]
discrete_label: Not met
//
molecule: NCCCC[C@H](N[C@@H](CCc1ccccc1)C(=O)O)C(=O)N1CCC[C@H]1C(=O)O
discrete_label: Not met
//
molecule: CN1CCN2c3ccccc3Cc3ccccc3C2C1 (stereo not drawn) [Mianserin HCl]
discrete_label: Met
//
molecule: CC(=O)[C@H]1CC[C@H]2[C@@H]3CCC4=CC(=O)CC[C@]4(C)[C@H]3CC[C@]12C
discrete_label: Met
//
molecule: O=C1NC(=O)C(c2ccccc2)(c2ccccc2)N1 [Phenytoin]
discrete_label: Met

Ask | Determine whether this molecule shows % Phosphatase Activity (compared to DMSO) PRL-3 lower than 90% (ties excluded): `COc1ccc(/C=C\c2cc(OC)c(OC)c(OC)c2)cc1OP(=O)([O-])[O-].[Na+].[Na+]`
Reply | Not met

Ask | # iterate: CN(C)CC(c1ccc(O)cc1)C1(O)CCCCC1 (stereo not drawn) [Desvenlafaxine Succinate]
Reply | Met

Ask | # iterate: `N#Cc1ccccc1-c1cc(-c2ccccn2)cn(-c2ccccc2)c1=O`
Reply | Not met

---

Reported % Phosphatase Activity (compared to DMSO) PRL-2 values for the following compounds.
study_system: recombinant PRL-2 (Homo sapiens, UniProt Q12974)
Construct: 6xHis (N, cleaved yes); made in house; host or cells: E. coli One Shot BL21 Star
Sequence (Q12974 whole entry): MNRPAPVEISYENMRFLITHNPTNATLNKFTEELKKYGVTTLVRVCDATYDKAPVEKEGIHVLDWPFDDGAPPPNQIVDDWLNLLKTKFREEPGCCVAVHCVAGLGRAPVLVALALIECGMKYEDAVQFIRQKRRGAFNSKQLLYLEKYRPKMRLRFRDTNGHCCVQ
measurement_notes: In vitro phosphatase assay (DiFMUP hydrolysis), PRL-2;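 also: PRL-2 activity read as DiFMUP hydrolysis after 20 min at room temperature with drug, enzyme first pre-reduced at 4 °C for 20 min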
Assay type: biochemical
run_parameters: FDA-approved drug screen; compared to DMSO
Where a name gives a salt, the structure may show the parent alone.
# number only, unit % dropped from output

A selection of reference data follows.
compound: CC(C)(C)C(=O)C(Oc1ccc(Cl)cc1)n1ccnc1 (stereo not drawn) [Climbazole]
study_system: recombinant PRL-2 (Homo sapiens, UniProt Q12974)
unit_string: %
measured_value: 94
--
compound: C[C@H]1O[C@@H](n2cc(F)c(=O)[nH]c2=O)[C@H](O)[C@@H]1O [Doxifluridine]
study_system: recombinant PRL-2 (Homo sapiens, UniProt Q12974)
unit_string: %
measured_value: 103
--
compound: CC1=C(C(=O)OC(C)C)C(c2cccc([N+](=O)[O-])c2)C(C(=O)OC2CN(C(c3ccccc3)c3ccccc3)C2)=C(N)N1 (stereo not drawn) [Azelnidipine]
study_system: recombinant PRL-2 (Homo sapiens, UniProt Q12974)
unit_string: %
measured_value: 99
--
compound: Cc1cccn2c(=O)c(-c3nnn[nH]3)cnc12 [Pemirolast potassium]
study_system: recombinant PRL-2 (Homo sapiens, UniProt Q12974)
unit_string: %
measured_value: 301

Could you now look at the following compound, please?
Ask | Fill in the blank: the reported % Phosphatase Activity (compared to DMSO) PRL-2 of CCCC(=O)Nc1ccc(OCC(O)CNC(C)C)c(C(C)=O)c1 (stereo not drawn) [Acebutolol HCl] is ____.
Reply | 123

---

study_system: recombinant PRL-1 (Homo sapiens, UniProt Q93096)
Construct: 6xHis (N, cleaved yes); made in house; host or cells: E. coli One Shot BL21 Star
Sequence (Q93096 whole entry): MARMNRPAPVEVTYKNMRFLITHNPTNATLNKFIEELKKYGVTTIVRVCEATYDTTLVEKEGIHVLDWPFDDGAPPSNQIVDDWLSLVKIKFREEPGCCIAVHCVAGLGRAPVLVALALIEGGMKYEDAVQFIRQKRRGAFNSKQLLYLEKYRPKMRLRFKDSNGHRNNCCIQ
measurement_notes: In vitro phosphatase assay (DiFMUP hydrolysis), PRL-1
Assay type: biochemical
run_parameters: FDA-approved drug screen; compared to DMSO
observation_type: % Phosphatase Activity (compared to DMSO) PRL-1
Please answer using the number first and the unit second.

A selection of reference data follows.
compound: COc1ccc(-n2nc(C(N)=O)c3c2C(=O)N(c2ccc(N4CCCCC4=O)cc2)CC3)cc1
measured_value: 102%

compound: Clc1ccc2c(c1)C(N1CCNCC1)=Nc1ccccc1O2
measured_value: 109%

compound: C[C@H]1O[C@@H](O[C@H]2[C@@H](O)C[C@H](O[C@H]3[C@@H](O)C[C@H](O[C@H]4CC[C@@]5(C)[C@H](CC[C@@H]6[C@@H]5C[C@@H](O)[C@]5(C)[C@@H](C7=CC(=O)OC7)CC[C@]65O)C4)O[C@@H]3C)O[C@@H]2C)C[C@H](O)[C@@H]1O
measured_value: 102%

compound: Cn1cc(CNCC2CCN(c3ncc(C(=O)NO)cn3)CC2)c2ccccc21
measured_value: 121%

compound: CN(C)[C@@H]1C(=O)C(C(N)=O)=C(O)[C@@]2(O)C(=O)C3=C(O)c4c(O)cccc4[C@@](C)(O)[C@H]3[C@H](O)[C@@H]12
measured_value: 58%

compound: CC(=O)NC[C@H]1CN(c2ccc(N3CCOCC3)c(F)c2)C(=O)O1
measured_value: 98%

compound: COC(=O)C1=C(C)NC(C)=C(C(=O)OC(C)(C)CN(C)CCC(c2ccccc2)c2ccccc2)C1c1cccc([N+](=O)[O-])c1.Cl (centres unmarked) [Lercanidipine (hydrochloride)]
measured_value: 87%

compound: Cc1cc(NC(=O)C2=C(O)c3ccccc3S(=O)(=O)N2C)no1
measured_value: 91%

Ask | State its % Phosphatase Activity (compared to DMSO) PRL-1 on recombinant PRL-1 (Homo sapiens, UniProt Q93096): `CNC(=C[N+](=O)[O-])NCCSCc1ccc(CN(C)C)o1`
Reply | 93%

Ask | # iterate: `Cc1ccc(=O)n(-c2ccccc2)c1`
Reply | 114%

Ask | # iterate: `CCOc1cc2ncc(C#N)c(Nc3ccc(OCc4ccccn4)c(Cl)c3)c2cc1NC(=O)/C=C/CN(C)C`
Reply | 110%

Ask | # iterate: Cl.NCCCC(N)(C(=O)O)C(F)F.O (centres unmarked) [Eflornithine hydrochloride hydrate]
Reply | 91%

Ask | # iterate: CC1(C)S[C@@H]2[C@H](NC(=O)[C@H](N)c3ccccc3)C(=O)N2[C@H]1C(=O)O [Ampicillin Trihydrate]
Reply | 92%

Ask | # iterate: `CC(O)C(=O)O.CC(O)C(=O)O.CN1CCN(c2ccc3nc(-c4c(N)c5c(F)cccc5[nH]c4=O)[nH]c3c2)CC1`
Reply | 92%
